// provenance: the supplement of paper PMC12494721

- Test system: Klebsiella aerogenes DSM 30053
- test-summary: growth (OD595) fold change vs plate DMSO controls (fold change (ratio)); higher = more growth
- condition-notes: 20 µM; incubation time: 27 h, anaerobic, 37 °C
Where a name gives a salt, the structure may show the parent alone.
measurement-type: growth
Reply briefly: the number, and no unit.

Consider the following illustrative entries.
[[record]]
compound = "NCC(CC(=O)O)c1ccc(Cl)cc1 (stereo unspecified)"
experimental_result = 1

[[record]]
compound = "CCc1nn(C)c(C(=O)NCc2ccc(Oc3ccc(C)cc3)cc2)c1Cl"
experimental_result = 1.01

[[record]]
compound = "CN[C@@H]1C[C@@H](c2ccc(Cl)c(Cl)c2)c2ccccc21 [Indatraline hydrochloride]"
experimental_result = 0.959

[[record]]
compound = "O=C(Nc1ccccc1-c1ccc(Cl)cc1)c1cccnc1Cl"
experimental_result = 0.996

[[record]]
compound = "N#Cc1c(Cl)c(Cl)c(Cl)c(C#N)c1Cl"
experimental_result = 0.925


Any idea what growth was measured for CCOc1ccc(C(C)(C)COCc2cccc(Oc3ccccc3)c2)cc1 ?
1.01

Ok, now Cc1nc(N(C)C)nc(OC(=O)N(C)C)c1C
0.963

Subsequent entry: CCSC(C)CC1CC(=O)C(/C(CC)=N/OC/C=C/Cl)=C(O)C1 (mixture of isomers)
0.988

Then this compound: Clc1ccc(C(c2ccc(Cl)cc2)C(Cl)(Cl)Cl)cc1
0.996

Query OCC(O)CCl (racemic) next
0.97

Next up: NC(=O)OCCCc1ccccc1 [Phenprobamate]
0.992
